assay: soluble on expression in E. coli; label from the status in PepcDB or PDB records
observable: soluble on expression in E. coli

sequence.string: MGSDKIHHHHHHMANALLQKWVERAERRALFWWQPKNGGVNMGDHLSKVIVSCVLALQDKTLLEKRDLRKKLIATGSVLHFAKDGDTVWGSGINGKIPAERNTFSTLDVRAVRGPKTRAFLLERGIAVPEVYGDPGLLTPMFFPADALGPVTKRPFAIVPHFNEPVEKYSAYAEHLVFPNVKPATFMSALLGAKFVISSSLHGLILAEAYGIPAVYLDWGNGEDRFKYDDYYHGTRRMQWHAGHSVEECMELGGNGSFDLERLQAGLLAAFPYDLW
endpoint.value: not soluble
//
sequence.string: MKDYRYALPAMMSVRKGESRYFNRGDQHLMNEILARVRAEGKIRLRDIDKKNKESLGNWWNTGPGRRAFEQLYMQGDLMICERNGMEKVYDLTERCLPENIDLSLPTLYEYAQYLFNNTLRAHGAFTWKQLVHLKKNDLKETMRVVLKEQIDAGVVSAIKLADGQNLYVDVTAIEQQLDTDFGLKILSPFDNSLIHRDRLTSLFEFDYRIECYLPAAKRVFGYFCLPILYQNELVGRIDCKAHRTVKELEVISLHLEKTVKDKEHFFFELDQELKRFAAFNQCSTVNDKVVKLIRSKLLEHHHHHH
endpoint.value: not soluble
//
sequence.string: MSGIWGNNLKVSIFGESHGNAIGINIDGLPSGIELDLDKIDKEMKRRAPGKNSISTSRNESDIPEILSGYFNGRTTGTPLCAIIRNSDTRSKDYGELKNLMRPGHADFTGNVRYSGFNDYRGGGHFSGRITAPLVFCGAICKQILSQKGIEIGAHIKKIKNIEDMSFDYVNISKQQLSNLQTLELPLLDLSKEEAMKNTIIDAKNQGDSVGGIIECAVVGINVGLGNPFFDSVESTLSHLLFSVPAVKGVEFGLGFELADMYGSQSNDEMYYEGNQVKSKTNNNGGIIGGITTGMPIIFKVAIKPTPSISRQQNTVNIKDKKDDILYIKGRHDPCIVQRAIPVIEAVTAIGIFDLMKGR
endpoint.value: not soluble

* * *

assay: soluble on expression in E. coli; label from the status in PepcDB or PDB records
observable: soluble on expression in E. coli

sequence.string: MSLNGSMVYGDFIRNQEVRKRITKEELGIEEDEIPERVVVTPMPFNTQFPKNFEDTLTNLGIKVNRLKVEDQILRQFGGNLLLEKDGNRGFIAFIGRGLIDFTERIRILATVSRIKDILFIGTAGSLSNEILIGDLNIPKYAIPFENVSDFYADPTIAIPQADEKLLNEVYEYAEETGVKTHSTLHATLLFPYSETTEFLNYLLNIGVSTIDMEVSAFYKMSRFYGKRAVAVLRISDMPLIELHKQEELIKARREIAVNAVFRITLRFLKLEGHHHHHH
observable: soluble on expression in E. coli
endpoint.value: soluble

sequence.string: KLNRAIGVIDSGVGGLTVAKELIRQLPKERIIYLGDTARCPYGPRSREEVRQFTWEMTEHLLDLNIKMLVIACNTATAVVLEEMQKQLPIPVVGVIHPGSRTALKVTNTYHVGIIGTIGTVKSGAYEEALKSINNRVMVESLACPPFVELVESGNFESEMAYEVVRETLQPLKNTDIDTLILGCTHYPILGPVIKQVMGDKVQLISSGDETAREVSTILYHSKMLNEGEEQSDHLFLTTGKIGLFKEIASKWFGQPIENVKHIHLEK
observable: soluble on expression in E. coli
endpoint.value: soluble
